target: h DHFR (Homo sapiens, UniProt P00374); construct: made in house; test: DHFR enzyme inhibition (standard DHFR assay), human DHFR; type: biochemical; settings: NI means no inhibition at 190 μM; read-out: DHFR h Ki
Sequence (P00374 whole entry): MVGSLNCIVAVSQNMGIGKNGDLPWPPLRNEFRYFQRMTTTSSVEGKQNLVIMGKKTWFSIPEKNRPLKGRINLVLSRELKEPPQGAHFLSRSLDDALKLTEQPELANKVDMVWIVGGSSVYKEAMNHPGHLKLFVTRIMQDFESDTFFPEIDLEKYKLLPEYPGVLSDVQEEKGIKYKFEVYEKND
pKi: −log10 of the molar value.
RESULT_TYPE: pKi

COMPOUND	TEST_TARGET	RESULT_MODIFIER	MEAS_VALUE
COC(=O)C1CCN(C(=O)c2ccc(NCc3nc4cc(C(F)(F)F)ccc4nc3-c3ccccc3)cc2)C(C(=O)OC)C1 (stereo not drawn)	h DHFR (Homo sapiens, UniProt P00374)	<	3.72
CCOC(=O)c1nc2ccccc2nc1CNc1ccc(C(=O)N2CCC(C(=O)O)CC2C(=O)O)cc1 (stereo not drawn)	h DHFR (Homo sapiens, UniProt P00374)	=	4.62
Cc1cc(C(F)(F)F)cc2nc(-c3ccccc3)c(CNc3ccc(C(=O)N4CCC(C(=O)O)CC4)cc3)nc12	h DHFR (Homo sapiens, UniProt P00374)	=	4.27
CCOC(=O)C1CCCCN1C(=O)c1ccc(NCc2cnc3ccc(C(F)(F)F)cc3n2)cc1 (stereo not drawn)	h DHFR (Homo sapiens, UniProt P00374)	<	3.72
COC(=O)C1CCN(C(=O)c2ccc(NCc3cnc4nc(N)nc(C)c4n3)cc2)CC1	h DHFR (Homo sapiens, UniProt P00374)	=	5.00
O=C(O)C1CCN(C(=O)c2ccc(NCc3cnc4cccc(C(F)(F)F)c4n3)cc2)CC1	h DHFR (Homo sapiens, UniProt P00374)	=	4.25

Data provenance: patent US20100305134A1
